Tested on: Canis familiaris
Method: Effect on arterial blood pressure (MAP) in anesthetized open-chest dogs at 8.75 mg/kg intravenous dose
Format: functional, Canis lupus familiaris
Value Type: Change (%)

compound_smiles=Cc1nc(O)nc2cc(Cl)c(Cl)cc12 value_type=Change reported_measurement=1
compound_smiles=COc1cc2nc(O)nc(C)c2cc1OC value_type=Change reported_measurement=-35
compound_smiles=CCc1nc(O)nc2cc(OC)c(OC)cc12 value_type=Change reported_measurement=-28
compound_smiles=COc1cc(OC)c2nc(O)nc(C)c2c1 value_type=Change reported_measurement=-6
compound_smiles=Br.Cc1nc(O)nc2ccc(O)c(O)c12 value_type=Change reported_measurement=8
compound_smiles=COc1ccc(OC)c2c(C)nc(O)nc12 value_type=Change reported_measurement=-6
compound_smiles=COc1cc2nc(O)nc(C(F)(F)F)c2cc1OC value_type=Change reported_measurement=-15
compound_smiles=Cc1nc(O)nc2cc3c(cc12)OCO3 value_type=Change reported_measurement=1
compound_smiles=Cc1nc(O)nc2ccc(Cl)cc12 value_type=Change reported_measurement=-21
compound_smiles=COc1cc(OC)c2c(C)nc(O)nc2c1 value_type=Change reported_measurement=-40
compound_smiles=Cc1nc(O)nc2ccccc12 value_type=Change reported_measurement=-8
compound_smiles=COc1cc2nc(O)nc(C3CCCC3)c2cc1OC value_type=Change reported_measurement=-19
compound_smiles=COc1cc2nc(O)nc(C(C)C)c2cc1OC value_type=Change reported_measurement=-27
compound_smiles=Cc1nc(O)nc2ccc(N(C)C)cc12 value_type=Change reported_measurement=-23
compound_smiles=COc1cc2nc(O)nc(-c3ccccc3)c2cc1OC value_type=Change reported_measurement=-25
